Assay: short-term cytotoxicity in ldlA[mSR-BI] cells, dose response, cytotoxicity control for SR-BI HDL uptake inhibitor project, cell-based, CellTiter-Glo luminescence, 3 h, dry powder (AID 588830)
Details: ldlA[mSR-BI] CHO cells viability, CellTiter-Glo ATP, 3 h; at 35 µM (top of the series)
Consider the following molecules; for each one, report its activity change, negative = cytotoxicity.
Give bare numbers, in %.

Some solved entries appear below for comparison.
COc1ccc([C@H]2CC(=O)C=C(c3cccc4c3sc3ccccc34)C2)cc1OC
-5.27
C[C@H]1CN([C@@H](C)CO)C(=O)c2cccc(N(C)C)c2O[C@@H]1CN(C)Cc1ccc(Cl)c(Cl)c1
-3.41
C[C@H]1CN([C@@H](C)CO)C(=O)c2cc(NC(=O)Nc3ccccc3)ccc2O[C@@H]1CN(C)Cc1ccc(Cl)c(Cl)c1
-3.67
C[C@H](CO)N1C[C@H](C)[C@@H](CN(C)S(=O)(=O)c2ccc(F)cc2)Oc2ccc(NC(=O)Cc3cn(C)c4ccccc34)cc2C1=O
-0.528
O=C(Nc1cc(C(F)(F)F)ccc1Cl)c1ccccc1NS(=O)(=O)c1ccc(Cl)cc1
-7.07

Hi team, please reply with activity change, negative = cytotoxicity for each item in this list.
1. C[C@H]1CN([C@@H](C)CO)C(=O)c2cccc(NC(=O)Nc3ccccc3)c2O[C@@H]1CN(C)Cc1ccccc1
2. COc1ccc(-c2nnn(CC(=O)N(C3CCCCC3)C(C)C(=O)NC3CCCC3)n2)cc1OC (stereo not drawn)
3. C[C@@H]1CN([C@H](C)CO)C(=O)c2cc(NC(=O)Cc3cn(C)c4ccccc34)ccc2O[C@@H]1CN(C)S(=O)(=O)c1ccc(F)cc1
4. C[C@H]1CN([C@@H](C)CO)C(=O)c2cccc(NC(=O)Nc3ccc(F)cc3)c2O[C@@H]1CN(C)Cc1ccc(Cl)c(Cl)c1
5. COc1cccc(-c2csc(N3CCN(C(=S)Nc4cccc(Cl)c4)CC3)n2)c1
6. C[C@H]1CN([C@@H](C)CO)C(=O)c2cccc(NS(C)(=O)=O)c2O[C@@H]1CN(C)Cc1ccc(Cl)c(Cl)c1
7. C[C@H]1CN([C@@H](C)CO)C(=O)c2cccc(NC(=O)Nc3ccccc3)c2O[C@@H]1CN(C)Cc1ccc(Cl)c(Cl)c1
8. CC(OC(=O)c1cccc(NS(C)(=O)=O)c1)C(=O)Nc1ccc(N2CCOCC2)cc1 (stereo not drawn)

Output line:
1: 0.984; 2: -4.74; 3: 2.73; 4: -26.7; 5: -9.99; 6: 1.6; 7: -15.5; 8: -7.82

Hi team, please reply with activity change, negative = cytotoxicity for each item in this list.
1. C[C@@H]1CN([C@H](C)CO)C(=O)c2cc(NC(=O)Cc3cn(C)c4ccccc34)ccc2O[C@H]1CN(C)S(=O)(=O)c1ccccc1
2. O=C(Nc1ccc(-c2nc3ccc(NC(=O)c4ccccc4[N+](=O)[O-])cc3[nH]2)cc1)c1ccccc1[N+](=O)[O-]
3. CC(C)OCCCNC(=O)c1ccc(C2SCC(=O)N2Cc2ccco2)cc1 (stereo not drawn)
4. C[C@@H]1CN([C@H](C)CO)C(=O)c2cc(NC(=O)Cc3cn(C)c4ccccc34)ccc2O[C@H]1CN(C)S(=O)(=O)c1ccc(F)cc1
5. CC(C)(C)NC(=O)N1CCN(c2ncccc2C(F)(F)F)CC1
6. COC(=O)c1cn(C(=O)c2cccc3ccccc23)c2ccccc12
7. O=C(Nc1ccccc1Cl)c1ccccc1NS(=O)(=O)c1ccccc1

Output line:
1: 1.08; 2: 6.32; 3: -4.74; 4: 1.06; 5: -3.5; 6: -13.3; 7: -1.11

Hi team, please reply with activity change, negative = cytotoxicity for each item in this list.
1. O=C(Nc1cccc(NC(=O)c2cc([N+](=O)[O-])ccc2Cl)n1)c1cc([N+](=O)[O-])ccc1Cl
2. C[C@@H]1CN([C@@H](C)CO)C(=O)c2cc(NC(=O)Cc3cn(C)c4ccccc34)ccc2O[C@@H]1CN(C)S(=O)(=O)c1ccc(F)cc1
3. C[C@H]1CN([C@@H](C)CO)C(=O)c2cccc(NC(=O)Nc3ccccc3)c2O[C@@H]1CN(C)C
4. COc1ccc(OC)c(CCNC(=O)c2ccc3c(c2)N(Cc2ccc(F)cc2)CCS3)c1

Output line:
1. -7.2
2. 2.84
3. -1.76
4. -5.33
